The reported numbers originate from PubChem BioAssay (NCI).

Tested on: ACHN renal
Assay: NCI-60 one-dose screen, 48 h (100 = growth as untreated, 0 = no growth, -100 = all killed)
Settings: 10 µM unless noted
Compounds without any hit were thinned out: in the full panel of roughly 83,000, 20% have a hit.
We label by threshold. Values of growth strictly beneath 30% are TRUE. Values of 30% and up are FALSE.

[[record]]
compound = "O=C(NNc1nc2cc(F)c(F)cc2n2cccc12)c1cccnn1"
label = "TRUE"

[[record]]
compound = "CCNC(=O)Oc1ccc(/C(=C(/C)c2ccc(Cl)cc2)c2ccc(OCCN(C)C)cc2)cc1"
label = "FALSE"

[[record]]
compound = "CCOP(=O)(OCC)OC[C@]12CCC(C)(C)C[C@H]1C1=CC[C@@H]3[C@@]4(C)C/C(=C\\c5cccnc5)[C@H](OP(=O)(OCC)OCC)C(C)(C)[C@@H]4CC[C@@]3(C)[C@]1(C)CC2"
label = "TRUE"

[[record]]
compound = "CCN(CC)CCCC(C)NCC(=O)NC(c1ccc2c(c1)OCO2)c1cc(Cl)c2cccnc2c1O (stereo not drawn)"
label = "TRUE"

[[record]]
compound = "CS(=O)(=O)c1ccc2c(c1)c1c(n2C(=O)c2ccc(Cl)cc2)CCCC1"
label = "FALSE"

[[record]]
compound = "c1ccc(-c2n(Cc3ccc4ccccc4c3)c3c4ccccc4c4ccccc4c3[n+]2Cc2ccc3ccccc3c2)cc1"
label = "TRUE"

[[record]]
compound = "NC(=S)N/N=C(/C=C/c1cn(-c2ccccc2)nc1-c1ccc(Cl)cc1)c1cc2ccccc2oc1=O"
label = "FALSE"

[[record]]
compound = "C/C(=C(/c1ccc(O)cc1)c1ccc(OCCN2CCCCCC2)cc1)c1ccccc1"
label = "FALSE"


----------
Tested on: RXF 393 renal
Experiment: NCI-60 one-dose screen, 48 h
Conditions: 10 µM unless noted
About 83,000 compounds went through this panel and 20% of them were active in at least one assay; those are over-represented in the sample as a whole. Active and inactive are the calls of the source. How the source made its calls: active means growth percent below 10; inactive means the rest.
Possible outcomes: y (active), n (inactive)

[[record]]
compound = "Nc1ccc(-c2nnc(SCc3ccc(O)c4ncccc34)n2-c2ccccc2)cc1"
measurement_target = "RXF 393 renal"
label = "n"

[[record]]
compound = "CSc1ccc(/C(=N/N=C(N)N)c2ccccc2)cc1"
measurement_target = "RXF 393 renal"
label = "n"

[[record]]
compound = "COc1ccc(N2C(=O)c3cc(OC)c(OC)cc3NC2SCc2ccccc2)cc1 (stereo not given)"
measurement_target = "RXF 393 renal"
label = "n"

[[record]]
compound = "O=c1cc(-c2ccccc2)nc2sc(-c3c[nH]c4ccc(F)cc34)nn12"
measurement_target = "RXF 393 renal"
label = "n"

[[record]]
compound = "O=C1c2c(c3c4cc(Br)ccc4[nH]c3c3ccc4ccccc4c23)C(=O)N1CCN1CCNCC1"
measurement_target = "RXF 393 renal"
label = "n"

[[record]]
compound = "COCCOc1ccc(-c2csc(NC(C)=O)n2)cc1NS(=O)(=O)c1cccc2c(N(C)C)cccc12"
measurement_target = "RXF 393 renal"
label = "n"

[[record]]
compound = "O=C1[C@H]2Cc3c([nH]c4ccccc34)[C@@H](c3ccc(Cl)cc3)N2C(=O)CN1C1CCN(Cc2c(Cl)cccc2Cl)CC1"
measurement_target = "RXF 393 renal"
label = "n"

[[record]]
compound = "Cc1cc(NS(=O)(=O)c2ccc(-c3cnc(C4CC4)o3)cc2)ccc1I"
measurement_target = "RXF 393 renal"
label = "n"

[[record]]
compound = "Cc1cn(-c2cc(NC(=O)c3cncc(C#Cc4cnc5ccc(OCCCS(C)(=O)=O)nn45)c3)cc(C(F)(F)F)c2)cn1"
measurement_target = "RXF 393 renal"
label = "y"

[[record]]
compound = "CC[C@@](C)(NC(=O)C(C)(C)NC(=O)[C@@H](NC(=O)[C@@H]1CCCN1C(=O)C(C)(C)NC(=O)[C@H](CC(C)C)NC(=O)CNC(=O)C(C)(C)NC(=O)[C@@H](NC(=O)C(C)(C)NC(=O)[C@H](CCC(N)=O)NC(=O)[C@H](C)NC(=O)C(C)(C)NC(=O)[C@H](C)NC(=O)C(C)(C)NC(=O)[C@@H]1CCCN1C(=O)C(C)(C)NC(C)=O)C(C)C)C(C)C)C(=O)N[C@@H](CCC(N)=O)C(=O)N[C@@H](CCC(N)=O)C(=O)N[C@H](CO)Cc1ccccc1"
measurement_target = "RXF 393 renal"
label = "n"

[[record]]
compound = "COc1cc(/C=N/n2cnc3oc(-c4ccccc4)cc3c2=N)cc(CN2CCOCC2)c1O"
measurement_target = "RXF 393 renal"
label = "y"

[[record]]
compound = "CCOC(=O)c1c(NC(=O)c2cccc(C(F)(F)F)c2)sc2c(CN3CCN(C)CC3)c(O)ccc12"
measurement_target = "RXF 393 renal"
label = "n"

[[record]]
compound = "CS(=O)(=O)c1ccc2c(c1)c1c(n2C(=O)c2ccc(Cl)cc2)CCCC1"
measurement_target = "RXF 393 renal"
label = "y"

[[record]]
compound = "CC(C)=CCC[C@](C)(O)[C@H]1CC[C@]2(C)[C@@H]1CC[C@@H]1[C@@]3(C)CCC(NC(=O)c4ccccc4C(=O)O)C(C)(C)[C@@H]3CC[C@]12C (stereo not given in full)"
measurement_target = "RXF 393 renal"
label = "n"

[[record]]
compound = "C#CCOc1ccccc1C(Nc1ccccc1)c1nnnn1C1CCCCC1 (stereo not given)"
measurement_target = "RXF 393 renal"
label = "n"


----------
Test system: SK-OV-3 ovarian
Test: NCI-60 one-dose screen, 48 h (100 = growth as untreated, 0 = no growth, -100 = all killed)
Settings: 10 µM unless noted
This is part of a sample that, as a whole, favours compounds with a hit. Of some 83,000 tested, about 20% had one in any assay.
property measured: growth (%)

[[record]]
compound = "IP(CCCSc1n(Cc2ccc3ccccc3c2)c(-c2ccccc2)c(-c2ccccc2)[n+]1Cc1ccc2ccccc2c1)(c1ccccc1)(c1ccccc1)c1ccccc1"
val = 29.4

[[record]]
compound = "COc1ccc(S(=O)(=O)NCCCNc2nccc(-n3cnc4ccccc43)n2)cc1"
val = 96.2

[[record]]
compound = "CC1(C)CC[C@]2(C(=O)N3CCCN(CC#N)CC3)CC[C@]3(C)C(=CC[C@@H]4[C@@]5(C)CC[C@H](O)C(C)(C)[C@@H]5CC[C@]43C)[C@H]2C1"
val = 83.7

[[record]]
compound = "COc1ccc(N2CCN(C(=O)CSc3ccc(-c4nc5cc(C)c(C)cc5[nH]4)cn3)CC2)cc1"
val = 94.6

[[record]]
compound = "COc1cc(-c2noc(C[C@@H](NC(=O)OCc3ccccc3)C(C)C)n2)cc(OC)c1OC"
val = 94.5

[[record]]
compound = "CCOC(=O)CC(=O)CSC1=NC2C(NN1)N(C)C(=O)N2C (stereo not drawn)"
val = 114

[[record]]
compound = "O=c1cc(-c2ccccc2)nc2sc(-c3c[nH]c4ccc(F)cc34)nn12"
val = 56.6

[[record]]
compound = "N#Cc1ccc(S(=O)(=O)Nc2ccc(-c3cnc(N)[nH]3)cc2)cc1"
val = 106


----------
Tested on: HCC-2998 colon
Assay: NCI-60 one-dose screen, 48 h (100 = growth as untreated, 0 = no growth, -100 = all killed)
Settings: 10 µM unless noted
Procedure: Growth inhibition of the HCC-2998 human tumor cell line is measured as a screen for anti-cancer activity. Cells are grown in 96 well plates and exposed to the test compound for 48 hours. Compounds are tested at a single concentration, which is 10^-5 M for most compounds. The reported endpoint is percent growth (GI% or GIPRCNT), where numbers from 0 - 100% represent growth inhibition, and numbers from -100% - 0 represent cell death. For example, a value of 40 represents 60% growth inhibition. […]
The panel holds about 83,000 compounds, 20% with a hit somewhere; the sample as a whole holds those more often.
Each entry below carries its reported growth.
property measured: growth (%)

[[record]]
molecule = "Cn1cc(-c2nn3c(=O)cc(-c4ccccc4)nc3s2)c2cc(F)ccc21"
val = 79.5

[[record]]
molecule = "COc1cc(C(=O)C[n+]2ccc3ccccc3c2)cc(OC)c1OC"
val = 103

[[record]]
molecule = "c1cncc(-c2cn3nc(-c4c[nH]c5ccccc45)sc3n2)c1"
val = 59.1

[[record]]
molecule = "CC(=O)Oc1ccc(CCN2C(=O)CSC2=S)cc1"
val = 108

[[record]]
molecule = "CN1CCN(c2ccc(C(=O)/C=C/c3ccc(Cl)c(C(F)(F)F)c3)cc2)CC1"
val = 33.7

[[record]]
molecule = "COc1ccc(/C=N\\NC(=O)c2ccc3nc(-c4ccc(Br)cc4)[nH]c3c2)cc1"
val = 59.4

[[record]]
molecule = "COc1ccc2c(ccn2C(=O)N2c3ccccc3Sc3ccccc32)c1"
val = 48.9

[[record]]
molecule = "C#C[C@]1(O)CC[C@H]2[C@@H]3CC=C4c5sc(-c6cccc(F)c6)nc5CC[C@]4(C)[C@H]3CC[C@@]21C"
val = 85.2

[[record]]
molecule = "CS(=O)c1nccc(-c2c(-c3ccc(F)c(OCCc4ccccc4)c3)nc3sccn23)n1 (stereo not given)"
val = 58.6

[[record]]
molecule = "COc1ccc(-c2cc(-c3cccc4ccccc34)n3c(n2)nc2ccccc23)cc1OC"
val = 72

